Cited source for all entries: PubChem BioAssay (NCI)

assay_protocol: NCI Yeast Anticancer Drug Screen. Data for the rad50 strain (AID 155);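 note: 0% = growth of vehicle-only cultures of the same strain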
reported_conditions: S. cerevisiae rad50 strain growth inhibition; at 50.0 µM (retest, dose inferred, filed as 5.0); active compounds read high
Compounds without any hit were thinned out: in the full panel of roughly 79,000, 15% have a hit.
Param threshold (70%) applies to growth inhibition; output 1 when value >= threshold, 0 when value < threshold.

compound | class_assignment
Cc1noc(-c2ccc([N+](=O)[O-])o2)n1 | 1
Nc1cc(Cl)c(S(=O)(=O)O)cc1Cl | 1
CC(=O)OC(c1ccccc1)c1ccc(Cl)cc1 (stereo unspecified) | 0
Cc1ccc(NCCN(C)C)c2c(=O)c3cc(O)ccc3sc12 | 1
CCC(=O)OCOc1ccc(/C=C2\CCC(CN(C)C)C2=O)cc1 (stereo unspecified) | 0

----------
assay_protocol: NCI Yeast Anticancer Drug Screen. Data for the mec2-1 strain (AID 157)
reported_conditions: S. cerevisiae mec2-1 strain, at 50.0 µM
Method: Growth inhibition of yeast strains with defined genetic alterations is measured as a screen for potential anti-cancer activity. Selected strains with alterations in DNA damage repair or cell cycle control were exposed to compounds and growth inhibition was measured relative to vehicle treated controls. The strain used in this assay is mec2-1
About 79,000 compounds went through this panel and 15% of them were active in at least one assay; those are over-represented in the sample as a whole. Activity calls are given as the source filed them. Rule as the data show it: active = growth inhibition above about 70%; inactive = the rest. Where a SMILES comes first, the peptide text is derived from it.
Outcome codes: active, inactive

compound | class_assignment
O=C(CC(=O)CC(O)(c1ccccc1)c1ccccc1)CC(=O)c1ccccc1 | active
Nc1ccccc1Oc1ccc(Cl)cc1Cl | active
CCSC(=NC)Nc1ccc(Oc2ccc(Cl)cc2)cc1 | inactive
CC(C)CCC[C@@H](C)[C@H]1CC[C@H]2[C@@H]3CC=C4N5CCCN=C5CC[C@]4(C)[C@H]3CC[C@]12C | active
OC1CN(Cc2ccccc2)C[C@@H]1O (some centres undefined) | inactive
O=[N+]([O-])c1cc2c(cc1S(=O)(=O)O)C1C(C3C2C2(Cl)C(Cl)=C(Cl)C3(Cl)C2(Cl)Cl)C2(Cl)C(Cl)=C(Cl)C1(Cl)C2(Cl)Cl (centres undefined) | inactive
COc1ccc(Oc2ccccc2N)cc1 | inactive
COc1ccc2nc3cc(Cl)ccc3c(NCCCNCc3cc(OC)c(OC)c(OC)c3)c2c1 | active
Cn1c(N)nc(=O)c2[nH]cnc21 | inactive
Cc1ccc2c(c1)C1(C)OC(C=CC1=O)O2 (centres undefined) | active
CC1=C(C(=O)Nc2c(C)cccc2C)C(c2ccc3c(c2)OCO3)C(C(=O)Nc2c(C)cccc2C)=C(C)N1 | active
C=C1CC2(CC(c3ccccc3C)OC(c3ccccc3C)C2)OC1=O (centres undefined) | active
C=CC(=O)OCCOc1ccc(Cl)cc1Cl | inactive
O=[N+]([O-])Cc1cnc2nncn2n1 | active
O=[N+]([O-])c1cccc2nc3ccccc3c(NCCN(CCO)CCO)c12 | active
CCCC1=CCCC1 | active
N#CC1Sc2ccccc2N1C(=O)OCc1ccccc1 (centres undefined) | active
CCOC(=O)Nc1c(C)cc(C)c(Br)c1C | active
CCCCN(CCCC)C(Cl)=Nc1ccccc1 | active
c1ccc2c(c1)CNc1ccccc1-2 | inactive
CCCCCCN(CCCCCC)C(=O)C1=C(C)NC(C)=C(C(=O)N(CCCCCC)CCCCCC)C1 | inactive
COC1CC2CCC(C)[C@](O)(O2)C(=O)C(=O)N2CCCCC2C(=O)OC(C(C)CC2CCC(O)C(OC)C2)CC(=O)C(C)C=C(C)C(OC(=O)CN(C)C)C(OC)C(=O)C(C)CC(C)/C=C/C=C/C=C\1C (some centres undefined) | active
CCCCCCC(C(=O)OCC)N1C(=O)c2ccccc2S1(=O)=O (centres undefined) | inactive
CC(C)C(NC(=O)C(N)CCC(=O)O)C(=O)O (stereo not drawn) (H-Glu-Val-OH; configuration not given here) | inactive
O=C1c2cc3c(cc2CC12Cc1ccccc1C2)CCC3 | inactive
CCOC(=O)C1=C(C(=O)c2ccc(OC)cc2)C(c2c(Cl)cccc2Cl)C(C(=O)c2ccc(OC)cc2)=C(C(=O)OCC)N1 | active
Fc1ccc(/C=C2\COCC3=C2NC(=S)NC3c2ccc(F)cc2)cc1 (centres undefined) | active
CN(C)CCNc1ccc(CO)c2oc3ccc(O)cc3c(=O)c12 | inactive
CCOC(=O)c1c(CN2CCNCC2)nc2ccc(Cl)cc2c1-c1ccccc1 | inactive
O=[N+]([O-])c1ccc(OCCN(Cc2ccccc2)Cc2ccccc2)c([N+](=O)[O-])c1 | inactive
N#CC(=C1C=CC(=NOC(=O)Nc2cccc3ccccc23)C=C1)c1ccccc1 | active
O=S(c1cc(Cl)cc(Cl)c1O)c1cc(Cl)cc(Cl)c1O | active
Fc1cccc(NC(=S)SCc2ccc(Cl)c(Cl)c2)c1 | active
CC1=NC(=Cc2ccc([N+](=O)[O-])cc2)C(=O)N1n1c(-c2ccccc2)nc2ccccc2c1=O | inactive
CCn1c2ccccc2c2ccc(N=Cc3ccc(N(C)C)cc3)cc21 | inactive
O/N=C/c1cc(I)c(O)c(I)c1 | active
Nc1nc(-c2ccccn2)cc2ccccc12 | inactive
Cc1c(C)c(CCl)c(C)c(C)c1CCl | active
O=S(=O)(CC(Cl)c1ccccc1)c1nc2ccccc2s1 (centres undefined) | active
c1ccc2nc3c(ccc4ccccc43)cc2c1 | active
C=C1CCC[C@@H]2[C@@](C)(Cc3cc(O)ccc3O)C(C)CC[C@]12C (some centres undefined) | active
COC1OCC(O)C(O)C1O (centres undefined) | inactive
CC1C[C@]2(C)C(=O)Nc3ccccc3[C@@H]2Nc2ccccc21 (some centres undefined) | active
O=C(CNCc1ccccc1)Oc1c(Cl)c(Cl)c(Cl)c(Cl)c1Cl | inactive
